// data source = patent US7022843B1

Tested on: L1210 cells
Experiment: Dark cytotoxicity in L1210 cells (plates wrapped in aluminum foil)
Format: cell-based
measured_endpoint: LD50dark (ng/mL)
Numbers only, in ng/mL.

Batch request: LD50dark per item, same order as input.
1. COc1cc(OC)c(-c2c3nc(c(-c4c(OC)cc(OC)cc4OC)c4ccc([nH]4)c(-c4c(OC)cc(OC)cc4OC)c4nc(c(-c5c(OC)cc(OC)cc5OC)c5ccc2[nH]5)C(O)C4O)C(O)C3O)c(OC)c1 (centres unmarked)
2. OC1c2nc(c(-c3c(F)c(F)c(F)c(F)c3F)c3ccc([nH]3)c(-c3c(F)c(F)c(F)c(F)c3F)c3nc(c(-c4c(F)c(F)c(F)c(F)c4F)c4ccc([nH]4)c2-c2c(F)c(F)c(F)c(F)c2F)C=C3)C1O (centres unmarked)

**Result**
18000
12000

---

What LD20dark was measured for each of the following?
System: L1210 cells
Test: Dark cytotoxicity in L1210 cells (plates wrapped in aluminum foil)
Format: cell-based
Settings: L1210 cells, absence of light
Give bare numbers, in ng/mL.

Recorded LD20dark, per entry:
COc1cc(-c2c3nc(c(-c4ccc(O)c(OC)c4)c4ccc([nH]4)c(-c4ccc(O)c(OC)c4)c4nc(c(-c5ccc(O)c(OC)c5)c5ccc2[nH]5)C(O)C4O)C=C3)ccc1O (stereo not shown)	500
COc1cc(-c2c3nc(c(-c4cc(OC)c(OC)c(OC)c4)c4ccc([nH]4)c(-c4cc(OC)c(OC)c(OC)c4)c4nc(c(-c5cc(OC)c(OC)c(OC)c5)c5ccc2[nH]5)C(O)C4O)C=C3)cc(OC)c1OC (stereo not shown)	7500
Oc1ccc(-c2c3nc(c(-c4ccc(O)cc4)c4ccc([nH]4)c(-c4ccc(O)cc4)c4nc(c(-c5ccc(O)cc5)c5ccc2[nH]5)C(O)C4O)C=C3)cc1 (stereo not shown)	5000

Next item in the queue.
**Query** Supply recorded LD20dark for OC1c2nc(c(-c3ccccc3F)c3ccc([nH]3)c(-c3ccccc3F)c3nc(c(-c4ccccc4F)c4ccc([nH]4)c2-c2ccccc2F)C=C3)C1O (stereo not shown) here.
**Result** 5000

---

Answer each item with its documented LD50.
System: L1210 cells
Assay: Phototoxicity in L1210 cells, MTT viability assay
Format: cell-based
Conditions: phototoxicity, L1210 cells; Table 4
Give bare numbers, in ng/mL.

OC1c2nc(c(-c3cccc(F)c3)c3ccc([nH]3)c(-c3cccc(F)c3)c3nc(c(-c4cccc(F)c4)c4ccc([nH]4)c2-c2cccc(F)c2)C=C3)C1O (stereo not drawn)	5000
OC1c2nc(c(-c3ccccc3)c3ccc([nH]3)c(-c3ccccc3)c3nc(c(-c4ccccc4)c4ccc([nH]4)c2-c2ccccc2)C(O)C3O)C1O (stereo not drawn)	700

Now turn to the next molecule.
**Query** Fill in LD50 for record OC1c2nc(c(-c3cccc(Br)c3)c3ccc([nH]3)c(-c3cccc(Br)c3)c3nc(c(-c4cccc(Br)c4)c4ccc([nH]4)c2-c2cccc(Br)c2)C=C3)C1O (stereo not drawn)
**Result** 4000

---

Kindly supply the reported LD50 values for the records listed here.
Tested on: L1210 cells
Test: Phototoxicity in L1210 cells, MTT viability assay
Assay type: cell-based
Conditions: phototoxicity, L1210 cells; Table 4

Oc1ccc(-c2c3nc(c(-c4ccc(O)cc4)c4ccc([nH]4)c(-c4ccc(O)cc4)c4nc(c(-c5ccc(O)cc5)c5ccc2[nH]5)C(O)C4O)C=C3)cc1 (centres unmarked) [Compound 10, T(p-OH)PC(OH)2]	3500 ng/mL

// moving on: another record for LD50
**Query** Identify measured LD50 associated with COc1cc(-c2c3nc(c(-c4cc(OC)c(OC)c(OC)c4)c4ccc([nH]4)c(-c4cc(OC)c(OC)c(OC)c4)c4nc(c(-c5cc(OC)c(OC)c(OC)c5)c5ccc2[nH]5)C(O)C4O)C=C3)cc(OC)c1OC (centres unmarked) [Compound 18, T(m,p,m′-OCH3)PC(OH)2]
**Result** 20 ng/mL
